Molecular target: GIRK1/GIRK4 (Homo sapiens, UniProt P48544+P48549)
Sequence (P48549 whole entry, species assumed): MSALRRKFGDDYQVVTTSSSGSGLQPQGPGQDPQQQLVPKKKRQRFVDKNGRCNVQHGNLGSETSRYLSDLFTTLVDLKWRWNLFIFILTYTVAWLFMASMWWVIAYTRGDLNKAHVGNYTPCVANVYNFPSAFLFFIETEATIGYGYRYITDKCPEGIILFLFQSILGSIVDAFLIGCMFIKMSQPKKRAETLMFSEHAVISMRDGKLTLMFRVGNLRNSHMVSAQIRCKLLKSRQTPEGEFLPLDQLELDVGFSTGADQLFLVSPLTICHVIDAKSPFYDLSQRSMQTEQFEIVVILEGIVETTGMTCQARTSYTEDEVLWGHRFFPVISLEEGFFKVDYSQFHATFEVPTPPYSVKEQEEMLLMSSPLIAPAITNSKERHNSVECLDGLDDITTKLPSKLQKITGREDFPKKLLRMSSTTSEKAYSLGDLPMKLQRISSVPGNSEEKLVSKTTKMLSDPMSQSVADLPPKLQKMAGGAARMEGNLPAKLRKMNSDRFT
Sequence (P48544 whole entry, species assumed): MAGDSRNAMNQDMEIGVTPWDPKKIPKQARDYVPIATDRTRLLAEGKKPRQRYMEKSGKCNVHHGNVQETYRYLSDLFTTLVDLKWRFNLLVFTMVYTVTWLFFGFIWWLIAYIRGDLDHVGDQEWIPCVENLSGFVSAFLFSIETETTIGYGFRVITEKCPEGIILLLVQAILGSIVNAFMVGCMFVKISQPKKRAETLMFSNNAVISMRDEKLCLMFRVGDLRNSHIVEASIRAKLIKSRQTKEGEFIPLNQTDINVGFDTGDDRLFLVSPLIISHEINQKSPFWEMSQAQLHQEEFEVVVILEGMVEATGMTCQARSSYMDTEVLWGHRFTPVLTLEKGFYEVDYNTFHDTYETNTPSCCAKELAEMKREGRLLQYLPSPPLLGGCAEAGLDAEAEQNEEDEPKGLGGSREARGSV
Assay: GIRK1/4 thallium flux assay in stably transfected HEK-293 cells
Format: cell-based
OUTCOME MEASURE: GIRK1/4 activity (in words)

compound="CN(C)S(=O)(=O)c1cccc(NC(=O)Cc2ccc(Cl)cc2)c1 [Compd 3c]" result="diminution in potency"
compound="Cc1ccc(NC(=O)Cc2ccc(F)cc2)cc1S(=O)(=O)N(C)C [Compd 3d]" result="diminution in potency"
